# experimentNotes: Solubility in water
# Assay type: physicochemical
outcomeMeasure: solubility (mg/mL)
Supply the numeric figure in mg/mL, leaving out any unit text.

{"smilesRepr": "COc1cccc2c1C(=O)c1c(O)c3c(c(O)c1C2=O)C[C@@](O)(C(C)=O)C[C@@H]3O[C@@H]1O[C@@H](C)[C@@H](N)[C@@H](O)[C@H]1F", "valueUnits": "mg/mL", "solubility": 10}

COc1cccc2c1C(=O)c1c(O)c3c(c(O)c1C2=O)C[C@@](O)(C(=O)CO)C[C@@H]3O[C@@H]1O[C@@H](C)[C@@H](N)[C@@H](O)[C@H]1F yielded solubility of 15

----------
# Tested on: Leukemia L-1210 cells
# experimentNotes: Antitumor activity against leukemia in CDF1 mice inoculated with Leukemia L-1210 cells
# Type: in vivo, mouse
# appliedConditions: 0.3 mg/kg/day, i.p., once a day for 9 days, as hydrochloride
outcomeMeasure: Increase (%) in life-span (T/C, %)
Answer format: numeric, % implied, no suffix.

{"compound": "COc1cccc2c1C(=O)c1c(O)c3c(c(O)c1C2=O)C[C@@](O)(C(C)=O)C[C@@H]3O[C@@H]1O[C@@H](C)[C@@H](N)[C@@H](O)[C@H]1F", "outcomeMeasure": "Increase (%) in life-span (T/C, %)", "reading": 152}
{"compound": "COc1cccc2c1C(=O)c1c(O)c3c(c(O)c1C2=O)C[C@@](O)(C(C)=O)C[C@@H]3O[C@H]1C[C@H](N)[C@H](O)[C@H](C)O1 [Daunomycin, reference compound]", "outcomeMeasure": "Increase (%) in life-span (T/C, %)", "reading": 112}

Please look at the following compound next.
Entry COc1cccc2c1C(=O)c1c(O)c3c(c(O)c1C2=O)C[C@@](O)(C(=O)CO)C[C@@H]3O[C@H]1C[C@H](N)[C@H](O)[C@H](C)O1 [Adriamycin, reference compound] — recorded Increase (%) in life-span (T/C, %) = 132

----------
Below, each of the compounds is paired with its reported Increase (%) in life-span (T/C, %) value.
# System: Leukemia L-1210 cells
# experimentNotes: Antitumor activity against leukemia in CDF1 mice inoculated with Leukemia L-1210 cells
# Format: in vivo, mouse
# appliedConditions: 5 mg/kg/day, i.p., once a day for 9 days, as hydrochloride
Write the number in % without appending the unit.

{"compound": "COc1cccc2c1C(=O)c1c(O)c3c(c(O)c1C2=O)C[C@@](O)(C(=O)CO)C[C@@H]3O[C@@H]1O[C@@H](C)[C@@H](N)[C@@H](O)[C@H]1F", "reading": 92}
{"compound": "COc1cccc2c1C(=O)c1c(O)c3c(c(O)c1C2=O)C[C@@](O)(C(C)=O)C[C@@H]3O[C@H]1C[C@H](N)[C@H](O)[C@H](C)O1 [Daunomycin, reference compound]", "reading": 138}
{"compound": "COc1cccc2c1C(=O)c1c(O)c3c(c(O)c1C2=O)C[C@@](O)(C(=O)CO)C[C@@H]3O[C@H]1C[C@H](N)[C@H](O)[C@H](C)O1 [Adriamycin, reference compound]", "reading": 177}

Increase (%) in life-span (T/C, %) reading for COc1cccc2c1C(=O)c1c(O)c3c(c(O)c1C2=O)C[C@@](O)(C(C)=O)C[C@@H]3O[C@@H]1O[C@@H](C)[C@@H](N)[C@@H](O)[C@H]1F : 175
